Test system: SEM cells
Assay: cell viability relative to DMSO control; higher = less cytotoxic
Conditions: RPMI 5 mM glucose + 10% FBS; 48 h; 0.19 µM
Would you mind telling me the reported cell viability of each entry?
Numeric only. Scale: %

Qu. Sample N#CC[C@H](C1CCCC1)n1cc(-c2ncnc3[nH]ccc23)cn1 — what was its cell viability?
Ans. 96.1

Qu. Sample C[C@H](NCc1ccc(OCc2cccc(F)c2)cc1)C(N)=O — what was its cell viability?
Ans. 92.1

Qu. Sample NC(CO)C(=O)NNCc1ccc(O)c(O)c1O (centres undefined) — what was its cell viability?
Ans. 105

Qu. Sample NCCc1ccc(O)c(O)c1 — what was its cell viability?
Ans. 139

Qu. Sample N[C@@H](Cc1ccc(O)c(O)c1)C(=O)O — what was its cell viability?
Ans. 115

Qu. Sample COc1cc(OC)c(C(=O)CCCN2CCCC2)c(OC)c1 — what was its cell viability?
Ans. 118

Qu. Sample COc1cc2ncn(-c3cc(OCc4ccccc4C(F)(F)F)c(C(N)=O)s3)c2cc1OC — what was its cell viability?
Ans. 105

Qu. Sample CC(C)n1cnc2c(NCCc3ccc(O)cc3)nc(-c3csc4ccccc34)nc21 — what was its cell viability?
Ans. 125

Qu. Sample Cc1ccc(/C=N/NC(=O)c2ccccc2Oc2ccccc2)o1 — what was its cell viability?
Ans. 104

Qu. Sample CCOCC(O)COc1ccc(NC(=O)CC[S+](C)C)cc1 (centres undefined) — what was its cell viability?
Ans. 103

Qu. Sample N=C(N)Nc1ccc(C(=O)Oc2ccc3cc(C(=N)N)ccc3c2)cc1 — what was its cell viability?
Ans. 21.5

Qu. Sample N#Cc1ccnc(N2C(=O)CC[C@H]2C(=O)N(c2cncc(F)c2)[C@H](C(=O)NC2CC(F)(F)C2)c2ccccc2Cl)c1 — what was its cell viability?
Ans. 134

Qu. Sample CCC(C1CCC(C)C(O1)C(C)C(O)C(C)C(=O)C(CC)C2OC\3(O[C@]4(CC[C@@](C)(O4)C5CC[C@@](O)(CC)C(C)O5)C(O)\C=C3)C(C)CC2C)C([O-])=O (some centres undefined) — what was its cell viability?
Ans. 109

Qu. Sample N#Cc1ccc(NC(=O)Nc2ccccc2Br)c2nn[nH]c12 — what was its cell viability?
Ans. 103

Qu. Sample CC(C)(Sc1ccc(CCN(CCCCC2CCCCC2)C(=O)NC2CCCCC2)cc1)C(=O)O — what was its cell viability?
Ans. 105

Qu. Sample Clc1ccc2ncc(-c3cccc(NC4CNC4)n3)n2c1 — what was its cell viability?
Ans. 141

Qu. Sample Oc1ccc(-c2ccc(-c3cc(Nc4cccc(CNC5CC5)c4)[nH]n3)cc2)c(O)c1 — what was its cell viability?
Ans. 89.7

Qu. Sample O=C(O)Cc1cccc(OCCCN(Cc2cccc(C(F)(F)F)c2Cl)CC(c2ccccc2)c2ccccc2)c1 — what was its cell viability?
Ans. 84.5

Qu. Sample COC(=O)Nc1nc2ccc([S+]([O-])c3ccccc3)cc2[nH]1 (centres undefined) — what was its cell viability?
Ans. 111

---

Tested on: P12-Ichikawa
Test: cell viability relative to DMSO control; higher = less cytotoxic
Conditions: RPMI 5 mM glucose + 10% dialyzed FBS; 48 h; 0.00702 µM
Would you mind telling me the reported cell viability of each entry?

Qu. Sample Cc1ccc(-c2cc(C(F)(F)F)nn2-c2ccc([S+](N)(=O)[O-])cc2)cc1 — what was its cell viability?
Ans. 122%

Qu. Sample CN1CCN(CCCN2c3ccccc3Sc3ccc(Cl)cc32)CC1.O=C(O)/C=C\C(=O)O.O=C(O)/C=C\C(=O)O — what was its cell viability?
Ans. 106%

Qu. Sample COc1ccc(C2(C#N)CCC(C(=O)O)CC2)cc1OC1CCCC1 (centres undefined) — what was its cell viability?
Ans. 92.8%

Qu. Sample OCCN(CCO)c1nc(N2CCCCC2)c2nc(N(CCO)CCO)nc(N3CCCCC3)c2n1 — what was its cell viability?
Ans. 111%

Qu. Sample Cc1ccc([S+](=O)([O-])Nc2cc(Cl)ccc2C(=O)Nc2nc(-c3ccccc3)cs2)cc1 — what was its cell viability?
Ans. 117%

Qu. Sample O=C(NCc1ccccc1)c1csc(Nc2ccncn2)n1 — what was its cell viability?
Ans. 104%

Qu. Sample CC(C)c1c(C(=O)Nc2ccccc2)c(-c2ccccc2)c(-c2ccc(F)cc2)n1CC[C@@H](O)C[C@@H](O)CC(=O)[O-] — what was its cell viability?
Ans. 91.2%

Qu. Sample C1CN\2C[C@@H](\N=C2S1)C3=CC=CC=C3 — what was its cell viability?
Ans. 90.1%

Qu. Sample Cc1ccc(/C=N/NC(=O)c2ccccc2Oc2ccccc2)o1 — what was its cell viability?
Ans. 87.7%

---

System: SEM cells
Assay: cell viability relative to DMSO control; higher = less cytotoxic
Settings: RPMI 5 mM glucose + 10% FBS; 48 h; 5.12 µM
Response field label takes Yes when cell viability is strictly below 70% and No in all other cases.

Qu. Quick check: cell viability of Cc1cnc(Nc2ccc(N3CCN(C)CC3)cc2)nc1Nc1cccc([S+](=O)([O-])NC(C)(C)C)c1 under 70%?
Ans. Yes

Qu. Quick check: cell viability of NNc1nncc2ccccc12 under 70%?
Ans. No

Qu. Quick check: cell viability of O=C(NCc1ccccc1)c1csc(Nc2ccncn2)n1 under 70%?
Ans. Yes

Qu. Quick check: cell viability of Cc1cccc2c1CC[C@H](CN1CCC(c3c(Cl)cccc3Cl)CC1)C[C@@H]2O under 70%?
Ans. No

Qu. Quick check: cell viability of NCCc1ccc(O)c(O)c1 under 70%?
Ans. No

Qu. Quick check: cell viability of NC(CO)C(=O)NNCc1ccc(O)c(O)c1O (configuration not stated) under 70%?
Ans. No

Qu. Quick check: cell viability of Clc1ccc2ncc(-c3cccc(NC4CNC4)n3)n2c1 under 70%?
Ans. No

---

Test system: SEM cells
Experiment: cell viability relative to DMSO control; higher = less cytotoxic
Details: RPMI 5 mM glucose + 10% FBS; 48 h; 46.1 µM
# thresholds on cell viability define classes: group 1 (below 8%), group 2 (8% to below 60%), group 3 (60% or more)

Qu. Bin this entry: Cc1cccc2c1CC[C@H](CN1CCC(c3c(Cl)cccc3Cl)CC1)C[C@@H]2O
Ans. group 2

Qu. Bin this entry: Clc1ccccc1C(c1ccccc1)(c1ccccc1)n1ccnc1
Ans. group 3

Qu. Bin this entry: Oc1ccc(-c2ccc(-c3cc(Nc4cccc(CNC5CC5)c4)[nH]n3)cc2)c(O)c1
Ans. group 1

Qu. Bin this entry: CC(C)c1c(C(=O)Nc2ccccc2)c(-c2ccccc2)c(-c2ccc(F)cc2)n1CC[C@@H](O)C[C@@H](O)CC(=O)[O-]
Ans. group 2

Qu. Bin this entry: O=[S+]([O-])(NCCNC/C=C/c1ccc(Br)cc1)c1cccc2cnccc12
Ans. group 2

Qu. Bin this entry: Oc1ccc([C@@H]2Oc3ccc(O)cc3[C@@H]3CCC[C@@H]32)cc1
Ans. group 2

Qu. Bin this entry: N=C(N)Nc1ccc(C(=O)Oc2ccc3cc(C(=N)N)ccc3c2)cc1
Ans. group 3

Qu. Bin this entry: C[N+]1(C)[C@@H]2CC(OC(=O)C(O)(c3cccs3)c3cccs3)C[C@H]1[C@@H]1O[C@@H]12 (stereo not given in full)
Ans. group 3

Qu. Bin this entry: C[N]1C=C(C=N1)C2=CC=C3N=CC\4=C(N(C(=O)\C=C4)C5=CC6=C(CCN6C(=O)C=C)C=C5)C3=C2
Ans. group 1

Qu. Bin this entry: N#CC[C@H](C1CCCC1)n1cc(-c2ncnc3[nH]ccc23)cn1
Ans. group 2

Qu. Bin this entry: CC(S)C(=O)NCC(=O)O (stereo not given)
Ans. group 3

Qu. Bin this entry: C[C@H](Cc1ccc(O)c(O)c1)[C@@H](C)Cc1ccc(O)c(O)c1
Ans. group 1

Qu. Bin this entry: CS[C@H]1SC[C@@H]2C(=O)N(C)[C@H](C(C)C)C(=O)OC[C@H](NC(=O)c3cnc4ccccc4n3)C(=O)N[C@H](C)C(=O)N(C)[C@H]1C(=O)N(C)[C@H](C(C)C)C(=O)OC[C@H](NC(=O)c1cnc3ccccc3n1)C(=O)N[C@H](C)C(=O)N2C
Ans. group 1

---

System: P12-Ichikawa
Test: cell viability relative to DMSO control; higher = less cytotoxic
Conditions: HPLM + 10% dialyzed FBS; 48 h; 0.0211 µM
reported metric: cell viability

Qu. Please tell me: cell viability of Cc1cnc(Nc2ccc(N3CCN(C)CC3)cc2)nc1Nc1cccc([S+](=O)([O-])NC(C)(C)C)c1 , system P12-Ichikawa?
Ans. 121%

Qu. Please tell me: cell viability of CC(C)n1cnc2c(NCCc3ccc(O)cc3)nc(-c3csc4ccccc34)nc21 , system P12-Ichikawa?
Ans. 114%

Qu. Please tell me: cell viability of NC[C@H]1O[C@H](O[C@H]2[C@H](O)[C@@H](O[C@H]3O[C@H](CO)[C@@H](O)[C@H](N)[C@H]3O)[C@H](N)C[C@@H]2N)[C@H](N)C[C@@H]1O , system P12-Ichikawa?
Ans. 106%

Qu. Please tell me: cell viability of CCOC(=O)O[C@]1(C(=O)OCCl)CC[C@H]2[C@@H]3CCC4=CC(=O)C=C[C@]4(C)[C@H]3[C@@H](O)C[C@@]21C , system P12-Ichikawa?
Ans. 107%

Qu. Please tell me: cell viability of CC(C)[N+]1(C)C2CCC1CC(OC(=O)C(CO)c1ccccc1)C2.O.[Br-] (centres undefined) , system P12-Ichikawa?
Ans. 112%

Qu. Please tell me: cell viability of Oc1ccc([C@@H]2Oc3ccc(O)cc3[C@@H]3CCC[C@@H]32)cc1 , system P12-Ichikawa?
Ans. 93.5%

Qu. Please tell me: cell viability of C[C@H](NCc1ccc(OCc2cccc(F)c2)cc1)C(N)=O , system P12-Ichikawa?
Ans. 123%

Qu. Please tell me: cell viability of C[C@H](Cc1ccc(O)c(O)c1)[C@@H](C)Cc1ccc(O)c(O)c1 , system P12-Ichikawa?
Ans. 122%

Qu. Please tell me: cell viability of Clc1ccccc1C(c1ccccc1)(c1ccccc1)n1ccnc1 , system P12-Ichikawa?
Ans. 115%

Qu. Please tell me: cell viability of CC[C@H]1CN2CCc3cc(OC)c(OC)cc3[C@@H]2C[C@@H]1C[C@H]1NCCc2cc(OC)c(OC)cc21 , system P12-Ichikawa?
Ans. 103%

Qu. Please tell me: cell viability of Oc1c(Cl)cc(Cl)c2cccnc12 , system P12-Ichikawa?
Ans. 100%

Qu. Please tell me: cell viability of C[C@H]1Oc2cc(cnc2N)-c2c(nn(C)c2C#N)CN(C)C(=O)c2ccc(F)cc21 , system P12-Ichikawa?
Ans. 120%

Qu. Please tell me: cell viability of Cc1ccc(-c2cc(C(F)(F)F)nn2-c2ccc([S+](N)(=O)[O-])cc2)cc1 , system P12-Ichikawa?
Ans. 118%

Qu. Please tell me: cell viability of CCCCCN(CCC12CC3CC(CC(C3)C1)C2)C(=O)NCCCc1ccncc1 , system P12-Ichikawa?
Ans. 114%

Qu. Please tell me: cell viability of CC(S)C(=O)NCC(=O)O (centres undefined) , system P12-Ichikawa?
Ans. 109%

Qu. Please tell me: cell viability of C[N+]1(C)[C@@H]2CC(OC(=O)C(O)(c3cccs3)c3cccs3)C[C@H]1[C@@H]1O[C@@H]12 (some centres undefined) , system P12-Ichikawa?
Ans. 106%

Qu. Please tell me: cell viability of CC(C)(C)C1=CC(=C(NC(=O)C/2=C/NC3=C(C=CC=C3)C2=O)C=C1O)C(C)(C)C , system P12-Ichikawa?
Ans. 120%

Qu. Please tell me: cell viability of COc1cc(OC)c(C(=O)CCCN2CCCC2)c(OC)c1 , system P12-Ichikawa?
Ans. 119%

Qu. Please tell me: cell viability of CC(C)(Sc1ccc(CCN(CCCCC2CCCCC2)C(=O)NC2CCCCC2)cc1)C(=O)O , system P12-Ichikawa?
Ans. 115%
